- assayed.system: porcine intestinal vitamin D receptor (Sus scrofa)
- Construct: from tissue; host or cells: porcine intestine
- Sequence (A3RGC1 1-427): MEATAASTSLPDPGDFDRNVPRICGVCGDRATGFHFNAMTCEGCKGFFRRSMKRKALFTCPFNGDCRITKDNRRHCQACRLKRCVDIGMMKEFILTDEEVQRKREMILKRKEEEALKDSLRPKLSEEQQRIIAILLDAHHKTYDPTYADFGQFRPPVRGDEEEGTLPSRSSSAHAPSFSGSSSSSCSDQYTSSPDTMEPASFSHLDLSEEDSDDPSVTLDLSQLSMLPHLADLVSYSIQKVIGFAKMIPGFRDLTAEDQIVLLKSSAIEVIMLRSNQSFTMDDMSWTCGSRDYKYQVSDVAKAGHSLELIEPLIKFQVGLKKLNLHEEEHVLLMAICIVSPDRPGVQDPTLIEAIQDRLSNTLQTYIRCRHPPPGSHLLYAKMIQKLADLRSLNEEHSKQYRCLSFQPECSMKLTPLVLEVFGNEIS
- method.summary: Competitive binding to the porcine intestinal vitamin D receptor ([3H]-1,25-(OH)2-D3 displacement)
- Parameters: species or system pig
- study.conditions: Table 6; concentration for 50% displacement of radiolabeled 1α,25-(OH)2D3; read-out: VDR Binding ED50
For each of the molecules below, state its pEC50.
One number for each entry, as −log10 of the molar value.

{"columns": ["molecule", "quantity", "reported"],
 "data": [
  ["CCC(O)(CC)CCCC(C)C1CCC2C(=CC=C3CC(O)C(C)C(O)C3)CCCC21C (centres unmarked) [Compound 36]", "pEC50", 8.51]
]}

We now examine a further molecule.
Entry CCC(O)(CC)CCCC(C)C1CCC2C(=CC=C3CC(O)C(C)C(O)C3)CCCC21C (centres unmarked) [Compound 37] , pEC50 reported as 8.32

----------
- assayed.system: porcine intestinal vitamin D receptor (Sus scrofa, UniProt A3RGC1)
- Construct: from tissue; host or cells: porcine intestine
- method.summary: Competitive binding to the porcine intestinal vitamin D receptor ([3H]-1,25-(OH)2-D3 displacement)
- Set-up: species or system pig
- study.conditions: Table 8; concentration for 50% displacement of radiolabeled 1α,25-(OH)2D3; read-out: VDR Binding ED50
quantity: pEC50
Answers are plain numbers, as −log10 of the molar value.

{"columns": ["compound", "pEC50"],
 "data": [
  ["CC1[C@H](O)CC(=C/C=C2\\CCC[C@@]3(C)C2CCC3[C@@H](C)CCCC2(O)CCCC2)C[C@H]1O (some centres unmarked) [Compound 49]", 8.64]
]}

We now examine a further compound.
Entry CC1[C@H](O)CC(=C/C=C2\CCC[C@@]3(C)C2CCC3[C@@H](C)CCCC2(O)CCCC2)C[C@H]1O (some centres unmarked) [Compound 48] , pEC50 reported as 8.46
